Data origin, for the record: patent US20250171438A1

target: human PAH with the R408W mutation (Homo sapiens, UniProt P00439, R408W); construct: expressed in transfected cells; assay: Cell Based Phenylalanine Flux Assay; settings: A375 cells expressing human R408W PAH; 24 hrs with compound; 13C-Tyrosine by LC-MS; average where tested multiple times; read-out: AC50
Sequence (P00439 whole entry R408W): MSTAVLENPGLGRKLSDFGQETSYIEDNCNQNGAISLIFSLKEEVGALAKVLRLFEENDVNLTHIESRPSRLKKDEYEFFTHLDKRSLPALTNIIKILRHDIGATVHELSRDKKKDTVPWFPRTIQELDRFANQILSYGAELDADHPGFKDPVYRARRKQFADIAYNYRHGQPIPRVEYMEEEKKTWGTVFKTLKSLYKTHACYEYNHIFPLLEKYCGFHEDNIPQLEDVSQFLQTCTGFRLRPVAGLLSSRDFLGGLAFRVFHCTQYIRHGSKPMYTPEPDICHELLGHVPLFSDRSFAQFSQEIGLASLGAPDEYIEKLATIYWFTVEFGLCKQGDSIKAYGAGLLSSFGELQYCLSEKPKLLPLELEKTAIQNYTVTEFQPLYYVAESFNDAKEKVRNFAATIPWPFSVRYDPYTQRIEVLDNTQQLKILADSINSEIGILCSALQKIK
# key: entry, value: AC50

# count of solved cases: 8
>  <COMPOUND>
Cn1nc(CC#N)nc1C(=O)N1CCc2[nH]cnc2C1c1nc2c(F)cccc2s1 (stereo not drawn)

>  <AC50>
> 5 µM

$$$$
>  <COMPOUND>
Cc1nc(C(C)(C)S(C)(=O)=O)oc1C(=O)N1CCc2[nH]cnc2C1c1nc2c(F)cccc2s1 (stereo not drawn)

>  <AC50>
1 to 5 µM

$$$$
>  <COMPOUND>
CC1CN(C(=O)c2cnn3cc(CN(C)C)ccc23)C(c2nc3ccccc3s2)c2nc[nH]c21 (stereo not drawn)

>  <AC50>
> 5 µM

$$$$
>  <COMPOUND>
Cc1nc(N2CCOCC2)oc1C(=O)N1CCCc2[nH]cnc2C1c1nc2ccccc2s1 (stereo not drawn)

>  <AC50>
1 to 5 µM

$$$$
>  <COMPOUND>
Cc1nc(CCC2CC2)oc1C(=O)N1CCCc2[nH]cnc2[C@H]1c1nc2ccccc2s1 (single isomer, unassigned)

>  <AC50>
1 to 5 µM

$$$$
>  <COMPOUND>
Cc1cc(C(=O)N2CCc3[nH]cnc3C2c2nc3c(F)cccc3s2)n(-c2ccc(F)cc2)n1 (stereo not drawn)

>  <AC50>
> 5 µM

$$$$
>  <COMPOUND>
CC1CN(C(=O)c2nnc(C(C)(C)O)o2)C(c2nc3ccccc3s2)c2nc[nH]c21 (stereo not drawn)

>  <AC50>
> 5 µM

$$$$
>  <COMPOUND>
O=C(c1nnc(N2CC(F)C2)o1)N1CCc2[nH]cnc2C1c1nc2ccccc2s1 (stereo not drawn)

>  <AC50>
1 to 5 µM

$$$$

Requested read-out: AC50. Entry: O=C(c1cnn2c(Br)cccc12)N1CCc2[nH]cnc2C1c1nc2ccccc2[nH]1 (stereo not drawn)
1 to 5 µM

---

molecular target: human PAH with the R408W mutation (Homo sapiens, UniProt P00439, R408W); construct: expressed in transfected cells; test: Cell Based Phenylalanine Flux Assay; conditions: A375 cells expressing human R408W PAH; 24 hrs with compound; 13C-Tyrosine by LC-MS; average where tested multiple times; read-out: AC50
METRIC NAME: AC50

# count of solved cases: 4
>  <MOLECULE>
O=C(c1nccs1)N1CCc2[nH]cnc2C1c1nc2cc(F)ccc2s1 (centres unmarked)

>  <METRIC NAME>
AC50

>  <VALUE OBSERVED>
1 to 5 µM

$$$$
>  <MOLECULE>
Cn1nc(C(C)(C)O)nc1C(=O)N1CCc2[nH]cnc2C1c1nc2ccccc2s1 (centres unmarked)

>  <METRIC NAME>
AC50

>  <VALUE OBSERVED>
1 to 5 µM

$$$$
>  <MOLECULE>
COCc1cc(C(=O)N2CCc3[nH]cnc3C2c2nc3c(F)cccc3s2)n(C)n1 (centres unmarked)

>  <METRIC NAME>
AC50

>  <VALUE OBSERVED>
1 to 5 µM

$$$$
>  <MOLECULE>
O=C(Cc1ccccn1)N1CCc2[nH]cnc2C1c1nc2ccccc2s1 (centres unmarked)

>  <METRIC NAME>
AC50

>  <VALUE OBSERVED>
1 to 5 µM

$$$$

Requested read-out: AC50. Entry: O=C(CCc1nc2ccccc2o1)N1CCc2[nH]cnc2C1c1nc2ccccc2[nH]1 (centres unmarked)
> 5 µM
